- tgt: human B1R receptor (hB1R) (Homo sapiens)
- Construct: expressed in transfected cells; host or cells: CHO K1 cells
- Sequence (P46663 whole entry): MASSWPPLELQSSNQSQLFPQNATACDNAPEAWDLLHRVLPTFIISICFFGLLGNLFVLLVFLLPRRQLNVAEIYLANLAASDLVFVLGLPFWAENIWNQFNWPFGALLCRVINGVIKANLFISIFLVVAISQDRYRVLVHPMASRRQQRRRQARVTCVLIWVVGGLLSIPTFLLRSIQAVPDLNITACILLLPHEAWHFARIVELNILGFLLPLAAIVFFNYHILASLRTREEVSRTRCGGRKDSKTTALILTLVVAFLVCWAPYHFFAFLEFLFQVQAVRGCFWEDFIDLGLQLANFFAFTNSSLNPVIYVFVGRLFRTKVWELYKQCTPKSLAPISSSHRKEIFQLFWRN
- method.description: Functional investigation on the bradykinin 1 receptor (B1R), FLIPR Ca2+ assay, hB1R cells
- Type: cell-based
- assay.conditions: test substance 10 μM; CHO K1 cells transfected with human B1R gene; Fluo-4 Ca2+ signal; agonist Lys-Des-Arg9-bradykinin at EC80; % of maximum achievable inhibition; read-out: B1R antagonism, human [10 μM] % inhibition
Classify by measured inhibition at 10 µM: Condition met if it is equal to or exceeds 50%, Condition not met if it is smaller.

Problem: Does inhibition at 10 µM meet or surpass 50% for Cc1cc(S(=O)(=O)N2CCC[C@H]2CCCS(=O)(=O)N2CCC(Oc3ccncc3)CC2)c(C)cc1Cl ?
Result: Condition met

Problem: Please tell me: is the molecule COc1cc(C)c(S(=O)(=O)N2CCCC2CCCCS(=O)(=O)N2CCC(CCN3CCCC3)CC2)c(C)c1C (stereo not shown) at or over 50% in terms of inhibition at 10 µM?
Result: Condition met

Problem: Does CN1CCC(N2CCN(S(=O)(=O)CC3CCCCN3S(=O)(=O)c3cccc(C(F)(F)F)c3)CC2)CC1 (stereo not shown) have a reported inhibition at 10 µM of at least 50%?
Result: Condition met

Problem: Threshold query (inhibition at 10 µM >= 50%) on O=S(=O)(CCC[C@@H]1CCCN1S(=O)(=O)c1c(Cl)cc(C(F)(F)F)cc1Cl)N1CCC(Oc2ccncc2)CC1
Result: Condition not met

Problem: Given the entry COc1cc(C)c(S(=O)(=O)N2CCC[C@H]2CCCS(=O)(=O)N2CCN(C3CCN(C)CC3)CC2)c(C)c1 , answer whether its inhibition at 10 µM meets or surpasses 50%.
Result: Condition met

====

- tgt: B1R receptor of the rat (rB1R) (Rattus norvegicus)
- Construct: expressed in transfected cells; host or cells: CHO K1 cells
- method.description: Functional investigation on the bradykinin 1 receptor (B1R), FLIPR Ca2+ assay, rB1R cells
- Type: cell-based
- assay.conditions: test substance 10 μM; CHO K1 cells transfected with rat B1R gene; Fluo-4 Ca2+ signal; agonist Des-Arg9-bradykinin at EC80; % of maximum achievable inhibition; read-out: B1R antagonism, rat [10 μM] % inhibition
Counter-ions that a name gives are not always drawn.
For each of the compounds below, state its inhibition at 10 µM.
Output spec: scalar in %, unitless text.

Problem: Give a short answer stating reported inhibition at 10 µM for O=S(=O)(CCC[C@@H]1CCCN1S(=O)(=O)c1ccc(F)c2ccccc12)N1CCC2(CCN(c3ccncc3)CC2)CC1 .
Result: 93

Problem: Specify measured inhibition at 10 µM for O=S(=O)(CCC[C@@H]1CCCN1S(=O)(=O)c1cccc2ccccc12)N1CCC(Oc2ccncc2)CC1 .
Result: 71

Problem: Determine from records and report inhibition at 10 µM for CN1CCC(N2CCN(S(=O)(=O)CCC[C@@H]3CCCN3S(=O)(=O)c3ccc(Cl)cc3Cl)CC2)CC1
Result: 64

Problem: Entry COc1cc(C)c(S(=O)(=O)N2CCCC(CCS(=O)(=O)N3CCC(CCN4CCCC4)CC3)C2)c(C)c1C (stereo not shown) [Example 39, hydrochloride] needs its inhibition at 10 µM filled in; supply it.
Result: 27

====

- tgt: B1R receptor of the rat (rB1R) (Rattus norvegicus, UniProt P97583)
- Construct: expressed in transfected cells; host or cells: CHO K1 cells
- Sequence (P97583 1-337): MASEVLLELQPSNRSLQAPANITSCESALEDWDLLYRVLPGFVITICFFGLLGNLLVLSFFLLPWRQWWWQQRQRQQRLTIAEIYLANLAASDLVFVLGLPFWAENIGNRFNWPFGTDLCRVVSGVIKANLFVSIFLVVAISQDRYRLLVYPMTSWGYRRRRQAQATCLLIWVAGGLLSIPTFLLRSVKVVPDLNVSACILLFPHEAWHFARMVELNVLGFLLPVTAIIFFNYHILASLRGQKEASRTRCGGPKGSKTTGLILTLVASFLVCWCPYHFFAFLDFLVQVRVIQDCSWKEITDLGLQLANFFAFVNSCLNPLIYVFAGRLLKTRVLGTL
- method.description: Functional investigation on the bradykinin 1 receptor (B1R), FLIPR Ca2+ assay, rB1R cells
- Assay type: cell-based
- assay.conditions: test substance 10 μM; CHO K1 cells transfected with rat B1R gene; Fluo-4 Ca2+ signal; agonist Des-Arg9-bradykinin at EC80; % of maximum achievable inhibition; read-out: B1R antagonism, rat [10 μM] % inhibition
Could you please report measured inhibition at 10 µM for the items listed next?
API: value field is a number in %; no unit string.

Problem: Please report the measured inhibition at 10 µM for Cc1cccc(Cl)c1S(=O)(=O)N1CCC[C@H]1CCCS(=O)(=O)N1[C@@H]2CC[C@H]1C[C@H](Oc1ccncc1)C2 [Example 55]
Result: 98

Problem: Tell me measured inhibition at 10 µM for COc1cc(C)c(S(=O)(=O)N2CCC[C@H]2CCCS(=O)(=O)N2CCC(Oc3ccncc3)CC2)c(C)c1 [Example 47] please.
Result: 95

Problem: Find the measured inhibition at 10 µM of COc1cc(C)c(S(=O)(=O)N2CCCC2CCCCS(=O)(=O)N2CCN(C3CCN(C)CC3)CC2)c(C)c1C (stereo not shown) [Example 7] and report it.
Result: 58

Problem: // Input: O=S(=O)(CCC[C@@H]1CCCN1S(=O)(=O)c1ccc(Cl)cc1Cl)N1CCC(Oc2ccncc2)CC1 [Example 51] . Output its inhibition at 10 µM only.
Result: 93

====

- tgt: B1R receptor of the rat (rB1R) (Rattus norvegicus, UniProt P97583)
- Construct: expressed in transfected cells; host or cells: CHO K1 cells
- Sequence (P97583 1-337): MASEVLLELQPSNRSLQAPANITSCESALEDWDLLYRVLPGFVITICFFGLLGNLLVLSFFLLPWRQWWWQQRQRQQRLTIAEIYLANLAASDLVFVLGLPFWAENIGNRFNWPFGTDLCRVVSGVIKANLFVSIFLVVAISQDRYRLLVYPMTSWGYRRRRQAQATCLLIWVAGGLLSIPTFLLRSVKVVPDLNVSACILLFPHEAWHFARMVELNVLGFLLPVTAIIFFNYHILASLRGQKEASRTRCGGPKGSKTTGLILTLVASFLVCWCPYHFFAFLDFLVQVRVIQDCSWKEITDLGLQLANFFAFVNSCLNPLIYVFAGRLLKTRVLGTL
- method.description: Functional investigation on the bradykinin 1 receptor (B1R), FLIPR Ca2+ assay, rB1R cells
- Type: cell-based
- assay.conditions: test substance 10 μM; CHO K1 cells transfected with rat B1R gene; Fluo-4 Ca2+ signal; agonist Des-Arg9-bradykinin at EC80; % of maximum achievable inhibition; read-out: B1R antagonism, rat [10 μM] % inhibition
Counter-ions that a name gives are not always drawn.
Please go through the items and note down their inhibition at 10 µM.
Give the number first and the unit second.

Problem: Return inhibition at 10 µM (reported value) for this molecule: O=S(=O)(CCC1CCN(S(=O)(=O)c2cccc(Cl)c2Cl)C1)N1CCC(CCN2CCCC2)CC1 (stereo not shown) [Example 17, hydrochloride]
Result: 12%

Problem: Specify measured inhibition at 10 µM for CN1CCC(N2CCN(S(=O)(=O)CCC[C@@H]3CCCN3S(=O)(=O)c3cccc4ccccc34)CC2)CC1 .
Result: 48%

Problem: Indicate the recorded inhibition at 10 µM value for this molecule: COc1cc(C)c(S(=O)(=O)N2CCC[C@H]2CCCS(=O)(=O)N2[C@@H]3CC[C@H]2C[C@H](Oc2ccncc2)C3)c(C)c1
Result: 98%

Problem: Query inhibition at 10 µM for Cc1cccc(Cl)c1S(=O)(=O)N1CCC[C@H]1CCCS(=O)(=O)N1CCC(Oc2ccncc2)CC1
Result: 99%

Problem: For Cc1cccc(Cl)c1S(=O)(=O)N1CCC[C@H]1CCCS(=O)(=O)N1CCC2(CCN(c3ccncc3)CC2)CC1 , write its inhibition at 10 µM.
Result: 97%

Problem: Find the measured inhibition at 10 µM of COc1cc(C)c(S(=O)(=O)N2CCC[C@H]2CCCS(=O)(=O)N2CCC3(CCN(c4ccncc4)CC3)CC2)c(C)c1 and report it.
Result: 99%

Problem: Consider the molecule COc1cc(C)c(S(=O)(=O)N2CCCCC2CCCS(=O)(=O)N2CCN(C3CCN(C)CC3)CC2)c(C)c1 (stereo not shown) and give its recorded inhibition at 10 µM.
Result: 98%
